As a worked illustration, we turn to IC50 data collected for Cytochrome P450 2C19 (Homo sapiens).

Give IC50 for each of the items listed below.
1. NCC#Cc1cnccc1-c1ccco1
2. Cc1ccncc1C#CCN.Cl.Cl
3. Cl.Cl.Cl.NCc1ccc(-c2cnccc2-c2cccnc2)o1
4. NCc1ccc(-c2cnccc2-c2ccco2)s1
5. COc1ccncc1C#CCN

Solution:
1. 3.7 µM
2. 8 µM
3. 13 µM
4. 1.4 µM
5. 9.3 µM

Field IC50 (entry Cl.Cl.Cl.Cl.NCc1ccc(-c2cnccc2-c2cncnc2)o1 ) reads > 25 µM

====

Target: Cytochrome P450 2B6 (Homo sapiens, UniProt P20813)
Sequence (P20813 whole entry): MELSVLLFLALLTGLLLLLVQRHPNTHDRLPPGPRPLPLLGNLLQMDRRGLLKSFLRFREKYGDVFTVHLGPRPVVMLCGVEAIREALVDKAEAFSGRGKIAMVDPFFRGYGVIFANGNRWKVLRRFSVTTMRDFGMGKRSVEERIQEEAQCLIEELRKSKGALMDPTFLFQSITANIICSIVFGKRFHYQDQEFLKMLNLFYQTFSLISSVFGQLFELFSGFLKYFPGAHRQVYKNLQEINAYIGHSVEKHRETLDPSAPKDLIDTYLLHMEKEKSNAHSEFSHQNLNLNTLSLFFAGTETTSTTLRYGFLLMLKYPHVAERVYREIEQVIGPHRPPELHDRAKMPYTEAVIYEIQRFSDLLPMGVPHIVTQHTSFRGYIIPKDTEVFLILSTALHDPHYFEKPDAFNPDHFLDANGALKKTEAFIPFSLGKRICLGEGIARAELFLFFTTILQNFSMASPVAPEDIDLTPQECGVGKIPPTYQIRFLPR
ATTRIBUTE_MEASURED: pIC50
One number for each entry, as −log10 of the molar value.

Completed entries (count: 4):
- STRUCTURE_SMILES: "Cl.Cl.Cl.Cl.NCc1ccc(-c2cnccc2-c2cncnc2)s1"
  TARGET_OR_SYSTEM: "Cytochrome P450 2B6 (Homo sapiens, UniProt P20813)"
  pIC50: 4.40
- STRUCTURE_SMILES: "COc1ccncc1C#CCN"
  TARGET_OR_SYSTEM: "Cytochrome P450 2B6 (Homo sapiens, UniProt P20813)"
  pIC50: 4.96
- STRUCTURE_SMILES: "CCc1ccncc1C#CCN.Cl.Cl"
  TARGET_OR_SYSTEM: "Cytochrome P450 2B6 (Homo sapiens, UniProt P20813)"
  pIC50: 4.72
- STRUCTURE_SMILES: "Cc1ccncc1C#CCN.Cl.Cl"
  TARGET_OR_SYSTEM: "Cytochrome P450 2B6 (Homo sapiens, UniProt P20813)"
  pIC50: 4.70

Summary for this compound, NCC#Cc1cnccc1-c1ccco1 : pIC50 is 5.30

Values from ChEMBL document CHEMBL4145649
